Molecular target: fully phosphorylated, active Mouse ERK2 protein (Mus musculus (Mouse), UniProt P63085)
Sequence (P63085 whole entry): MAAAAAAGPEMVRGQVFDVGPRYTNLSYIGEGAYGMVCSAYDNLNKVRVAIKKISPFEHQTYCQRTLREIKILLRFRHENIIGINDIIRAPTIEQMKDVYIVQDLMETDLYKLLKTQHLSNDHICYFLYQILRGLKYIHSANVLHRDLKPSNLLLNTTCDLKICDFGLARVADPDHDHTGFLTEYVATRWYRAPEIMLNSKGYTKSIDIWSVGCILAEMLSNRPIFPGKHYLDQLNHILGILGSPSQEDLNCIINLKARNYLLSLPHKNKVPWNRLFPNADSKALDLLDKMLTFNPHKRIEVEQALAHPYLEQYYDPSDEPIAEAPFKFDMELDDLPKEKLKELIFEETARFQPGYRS
pIC50: −log10 of the molar value.
quantity: pIC50

The measured pIC50 associated with Cc1cc(-c2n[nH]c3ccc(C(=O)NC4CCCC(Oc5cccc(F)c5)(C(N)=O)C4)cc23)ccn1 (stereo not drawn) reads 7.95

(a) O=C(N[C@@H]1CCC[C@](O)(Cc2ccccc2F)C1)c1ccc2[nH]nc(-c3ccc4nccn4c3)c2c1
(b) Cc1cc(-c2n[nH]c3ccc(C(=O)NC4CCCC(F)(Cc5ccccc5F)C4)cc23)ccn1 (racemic)
INPUT: Given the listed records, identify the one among a and b with higher pIC50. Could you answer with the label of the item you picked?
OUTPUT: a
(a: 8.07, b: 6.00)

###

Target: fully phosphorylated, active Mouse ERK2 protein (Mus musculus (Mouse), UniProt P63085)
Experiment: Active ERK2 (aERK) IMAP assay
Type: biochemical
Conditions: IMAP fluorescence polarization; 30 μM ATP; 30 minute pre-incubation
pIC50: −log10 of the molar value.
quantity: pIC50

Below: 6 molecules and their reported pIC50.
The measured pIC50 associated with Cc1cc(-c2n[nH]c3ccc(C(=O)NC4CCCC(CO)(Cc5ccccc5F)C4)cc23)ccn1 (centres unmarked) [compound 133] reads 6.96

The measured pIC50 associated with Cc1cc(-c2n[nH]c3ccc(C(=O)NC4CCCC(CO)(Oc5ccccc5)C4)cc23)ccn1 (centres unmarked) reads 7.00

The measured pIC50 associated with Cc1cc(-c2n[nH]c3ccc(C(=O)NC4CCCC(Oc5ccccc5F)C4)cc23)ccn1 (single isomer, unassigned) [compound 28] reads 6.95

The measured pIC50 associated with COC1(Cc2ccccc2F)CCCC(NC(=O)c2ccc3[nH]nc(-c4ccnc(C)c4)c3c2)C1 (centres unmarked) reads 7.55

The measured pIC50 associated with Cc1cc(-c2n[nH]c3ccc(C(=O)NC4CCCC(O)(Cc5ccccc5F)C4)cc23)ccn1 (single isomer, unassigned) [compound 1] reads 6.23

The measured pIC50 associated with Cc1cc(-c2n[nH]c3ccc(C(=O)NC4CCCC(O)(Cc5c(F)cccc5F)C4)cc23)ccn1 (single isomer, unassigned) [compound 5] reads 6.00

(I) Cc1cc(-c2n[nH]c3ccc(C(=O)N[C@@H]4CCC[C@@](O)(Cn5cc6cccnc6n5)C4)cc23)ccn1 (relative stereo)
(II) Cc1cc(-c2n[nH]c3ccc(C(=O)NC4CCCC(O)(C(=O)c5ccccc5)C4)cc23)ccn1 (centres unmarked) [compound 53]
INPUT: Given the listed records, identify the one among I and II with higher pIC50. Could you answer with the label of the item you picked?
OUTPUT: II

###

Reported pIC50, fully phosphorylated, active Mouse ERK2 protein (Mus musculus (Mouse), UniProt P63085).
pIC50: −log10 of the molar value.
quantity: pIC50

Below: 2 compounds and their reported pIC50.
The measured pIC50 associated with Cc1cc(-c2n[nH]c3ccc(C(=O)NC4CCCC(O)(C(O)c5ccccc5)C4)cc23)ccn1 (stereo not drawn) [compound 51] reads 6.69

The measured pIC50 associated with O=C(NC1CCCC(O)(Cc2ccccc2F)C1)c1ccc2[nH]nc(-c3ccc4ncsc4c3)c2c1 (single isomer, unassigned) [compound 10] reads 6.00

(P) Cc1cc(-c2n[nH]c3ccc(C(=O)NN4CCCC(CO)(Oc5cc(F)ccc5F)C4)cc23)ccn1 (stereo not drawn) [compound 147]
(Q) Cc1cc(-c2n[nH]c3ccc(C(=O)NC4CCCC(O)(C(F)(F)c5ccccc5)C4)cc23)ccn1 (stereo not drawn) [compound 46]
INPUT: Quick one: lower pIC50, P or Q ? Could you answer with the label of the item you picked?
OUTPUT: Q
(Q: 6.20, P: 6.41)

(1) O=C(N[C@H]1CCC[C@@](O)(Cc2ccccc2F)C1)c1ccc2[nH]nc(-c3ccc4nccn4c3)c2c1 (relative stereo) [compound 9]
(2) Cc1cc(-c2n[nH]c3ccc(C(=O)NN4CCCC(Oc5ccccc5F)C4)cc23)ccn1 (stereo not drawn) [compound 143]
INPUT: Given the listed records, identify the one among 1 and 2 with higher pIC50. Could you answer with the label of the item you picked?
OUTPUT: 2

(a) CC(C)Oc1ccc(-c2n[nH]c3ccc(C(=O)N[C@@H]4CCC[C@](O)(Cc5c(F)cccc5F)C4)cc23)cn1 [compound 18]
(b) Cc1cc(-c2n[nH]c3ccc(C(=O)NC4CCCC(O)(C(=O)c5ccccc5)C4)cc23)ccn1 (stereo not drawn) [compound 47]
INPUT: Quick one: lower pIC50, a or b ? Could you answer with the label of the item you picked?
OUTPUT: b

(I) Cc1cc(-c2n[nH]c3ccc(C(=O)N[C@@H]4CCC[C@@](O)(Cn5cncn5)C4)cc23)ccn1 (relative stereo) [compound 64]
(II) COCC1(Cc2ccccc2F)CCCN(NC(=O)c2ccc3[nH]nc(-c4ccnc(C)c4)c3c2)C1 (stereo not drawn) [compound 149]
INPUT: Given the listed records, identify the one among I and II with higher pIC50. Could you answer with the label of the item you picked?
OUTPUT: I

###

Reported IC50, fully phosphorylated, active Mouse ERK2 protein (Mus musculus (Mouse), UniProt P63085).
quantity: IC50 (nM)

Below: 6 compounds and their reported IC50.
The measured IC50 associated with Cc1cc(-c2n[nH]c3ccc(C(=O)NC4CCCC(Cn5ncc6ccc(C(F)(F)F)cc65)C4)cc23)ccn1 (mixture of isomers) [compound 125] reads 1000

The measured IC50 associated with Cc1cc(-c2n[nH]c3ccc(C(=O)N[C@@H]4CCC[C@@](O)(Cn5ncc6cnccc65)C4)cc23)ccn1 (relative stereo) [compound 91] reads 563

The measured IC50 associated with Cc1cc(-c2n[nH]c3ccc(C(=O)NC4CCCC(O)(C(O)c5ccccc5)C4)cc23)ccn1 (stereo not drawn) [compound 49] reads 25

The measured IC50 associated with Cn1cc2cc(-c3n[nH]c4ccc(C(=O)N[C@@H]5CCC[C@@](O)(Cn6ccnc6)C5)cc34)ccc2n1 (relative stereo) [compound 57] reads 37.8

The measured IC50 associated with Cc1cc(-c2n[nH]c3ccc(C(=O)N[C@@H]4CCC[C@@](O)(Cn5c(C(F)(F)F)nc6ccccc65)C4)cc23)ccn1 [compound 68] reads 821

The measured IC50 associated with Cc1cc(-c2n[nH]c3ccc(C(=O)NC4CCCC(Oc5ccc(F)cc5F)C4)cc23)ccn1 (single isomer, unassigned) [compound 38] reads 476

(P) Cc1cc(-c2n[nH]c3ccc(C(=O)NC4CCCC(Cn5ncc6ccncc65)C4)cc23)ccn1 (stereo not drawn) [compound 115]
(Q) Cc1cc(-c2n[nH]c3ccc(C(=O)N[C@@H]4CCC[C@](O)(Cn5c(=O)ccc6ccccc65)C4)cc23)ccn1 (relative stereo) [compound 89]
INPUT: Given the listed records, identify the one among P and Q with higher IC50. Could you answer with the label of the item you picked?
OUTPUT: Q

###

Reported IC50, fully phosphorylated, active Mouse ERK2 protein (Mus musculus (Mouse)).
quantity: IC50 (nM)

The measured IC50 associated with Cc1cc(-c2n[nH]c3ccc(C(=O)NC4CCCC(Oc5c(F)cccc5F)C4)cc23)ccn1 (centres unmarked) [compound 32] reads 573

The measured IC50 associated with Cc1cc(-c2n[nH]c3ccc(C(=O)NC4CCCC(Cn5ncc6cccc(F)c65)C4)cc23)ccn1 (mixture of isomers) [compound 126] reads 56.6

The measured IC50 associated with Cc1cc(-c2n[nH]c3ccc(C(=O)NC4CCCC(Cn5ncc6ccccc65)C4)cc23)ccn1 (centres unmarked) [compound 123] reads 10.7

(a) Cc1cc(-c2n[nH]c3ccc(C(=O)NC4CCC(CO)(Cc5ccccc5F)C4)cc23)ccn1 (centres unmarked) [compound 139]
(b) Cc1cc(-c2n[nH]c3ccc(C(=O)NC4CCCC(O)(Cc5ccccc5F)C4)cc23)ccn1 (single isomer, unassigned) [compound 2]
INPUT: Given the listed records, identify the one among a and b with higher IC50. Could you answer with the label of the item you picked?
OUTPUT: a
(a: 64.4 nM, b: 20.8 nM)

###

pIC50: −log10 of the molar value.
Reported pIC50, fully phosphorylated, active Mouse ERK2 protein (Mus musculus (Mouse), UniProt P63085).
quantity: pIC50

Below: 8 compounds and their reported pIC50.
The measured pIC50 associated with Cc1cc(-c2n[nH]c3ccc(C(=O)N[C@@H]4CCC[C@](O)(Cn5cncn5)C4)cc23)ccn1 (relative stereo) reads 6.71

The measured pIC50 associated with O=C(NC1CCCC(O)(Cc2ccccc2F)C1)c1ccc2[nH]nc(-c3ccc4ncsc4c3)c2c1 (single isomer, unassigned) [compound 11] reads 6.58

The measured pIC50 associated with Cc1cc(-c2n[nH]c3ccc(C(=O)N[C@H]4CCC[C@@](O)(Cn5cc6ccc(C(F)(F)F)cc6n5)C4)cc23)ccn1 (relative stereo) reads 6.00

The measured pIC50 associated with Cc1cc(-c2n[nH]c3ccc(C(=O)NC4CCCC(O)(Cc5c(F)cccc5F)C4)cc23)ccn1 (single isomer, unassigned) [compound 8] reads 6.00

The measured pIC50 associated with Cc1cc(-c2n[nH]c3ccc(C(=O)NC4CCCC(CN5C(=O)Cc6ccccc65)C4)cc23)ccn1 (stereo not shown) reads 7.76

The measured pIC50 associated with Cc1cc(-c2n[nH]c3ccc(C(=O)NC4CCCC(O)(Cc5c(F)cccc5F)C4)cc23)ccn1 (single isomer, unassigned) [compound 7] reads 7.82

The measured pIC50 associated with Cc1cc(-c2n[nH]c3ccc(C(=O)NC4CCCC(O)(Cc5ccccc5F)C4)cc23)ccn1 (single isomer, unassigned) [compound 3] reads 8.12

The measured pIC50 associated with "CC(C)Oc1cc(-c2n[nH]c3ccc(C(=O)N[C@@H]4CCC[C@](O)(Cc5ccccc5F)C4)cc23)ccn1" reads 6.52

(I) Cc1cc(-c2n[nH]c3ccc(C(=O)NC4CCCC(O)(C(O)c5ccccc5)C4)cc23)ccn1 (stereo not shown) [compound 50]
(II) Cc1cc(-c2n[nH]c3ccc(C(=O)NC4CCCC(Cn5cnc6ncccc65)C4)cc23)ccn1 (stereo not shown)
INPUT: Quick one: lower pIC50, I or II ? Could you answer with the label of the item you picked?
OUTPUT: II
(II: 7.06, I: 7.32)
